Target: full length N-terminally FLAG-tagged PARP1 (Homo sapiens)
Experiment: PARP1 biochemical DELFIA assay (auto-PARylation)
Parameters: recombinant full length human N-terminally FLAG-tagged PARP1
Details: binned IC50, PARP1 biochemical DELFIA assay
Reported IC50 values for the following compounds.

compound	measured.on	IC50
CNC(=O)c1ccc(N2CCC(N3CCCC(c4nc5cc(F)ccc5c(=O)[nH]4)C3)CC2)cn1 (single isomer, unassigned) [Compound 108a]	full length N-terminally FLAG-tagged PARP1 (Homo sapiens)	100 to 1000 nM
CNC(=O)c1ccc(N2CCC(N3CCC(c4nc5sc6c(c5c(=O)[nH]4)CCC6)C3)CC2)cn1 (single isomer, unassigned) [Compound 189a]	full length N-terminally FLAG-tagged PARP1 (Homo sapiens)	10 to 100 nM
CNC(=O)c1ccc(N2CCC(N3CCCC(c4nc5cc(F)ccc5c(=O)[nH]4)C3)CC2)cn1 (single isomer, unassigned) [Compound 108b]	full length N-terminally FLAG-tagged PARP1 (Homo sapiens)	100 to 1000 nM
CCc1ccc(C2CCN(C3CCN(c4cnc(C(=O)NC)cc4C)CC3)C2)[nH]c1=O (single isomer, unassigned) [Compound 217b]	full length N-terminally FLAG-tagged PARP1 (Homo sapiens)	< 10 nM

Query: Query IC50 for CNC(=O)c1ccc(N2CCC(N3CCC(c4cc5c(F)cccc5c(=O)[nH]4)C3)CC2)cn1 (single isomer, unassigned) [Compound 172b]
Response: < 10 nM

Query: Query IC50 for "CCc1cnc(C2CCN(CC3CCN(c4ccc(C(=O)NC)nc4)CC3)CC2)[nH]c1=O"
Response: 1000 to 10000 nM

Query: Query IC50 for CNC(=O)c1ccc(N2CCC(N3CCC(c4cc5cccc(F)c5c(=O)[nH]4)C3)CC2)c(Cl)n1 (single isomer, unassigned) [Compound 183a]
Response: < 10 nM

====

Molecular target: full length N-terminally FLAG-tagged PARP1 (Homo sapiens, UniProt P09874)
Sequence (P09874 whole entry): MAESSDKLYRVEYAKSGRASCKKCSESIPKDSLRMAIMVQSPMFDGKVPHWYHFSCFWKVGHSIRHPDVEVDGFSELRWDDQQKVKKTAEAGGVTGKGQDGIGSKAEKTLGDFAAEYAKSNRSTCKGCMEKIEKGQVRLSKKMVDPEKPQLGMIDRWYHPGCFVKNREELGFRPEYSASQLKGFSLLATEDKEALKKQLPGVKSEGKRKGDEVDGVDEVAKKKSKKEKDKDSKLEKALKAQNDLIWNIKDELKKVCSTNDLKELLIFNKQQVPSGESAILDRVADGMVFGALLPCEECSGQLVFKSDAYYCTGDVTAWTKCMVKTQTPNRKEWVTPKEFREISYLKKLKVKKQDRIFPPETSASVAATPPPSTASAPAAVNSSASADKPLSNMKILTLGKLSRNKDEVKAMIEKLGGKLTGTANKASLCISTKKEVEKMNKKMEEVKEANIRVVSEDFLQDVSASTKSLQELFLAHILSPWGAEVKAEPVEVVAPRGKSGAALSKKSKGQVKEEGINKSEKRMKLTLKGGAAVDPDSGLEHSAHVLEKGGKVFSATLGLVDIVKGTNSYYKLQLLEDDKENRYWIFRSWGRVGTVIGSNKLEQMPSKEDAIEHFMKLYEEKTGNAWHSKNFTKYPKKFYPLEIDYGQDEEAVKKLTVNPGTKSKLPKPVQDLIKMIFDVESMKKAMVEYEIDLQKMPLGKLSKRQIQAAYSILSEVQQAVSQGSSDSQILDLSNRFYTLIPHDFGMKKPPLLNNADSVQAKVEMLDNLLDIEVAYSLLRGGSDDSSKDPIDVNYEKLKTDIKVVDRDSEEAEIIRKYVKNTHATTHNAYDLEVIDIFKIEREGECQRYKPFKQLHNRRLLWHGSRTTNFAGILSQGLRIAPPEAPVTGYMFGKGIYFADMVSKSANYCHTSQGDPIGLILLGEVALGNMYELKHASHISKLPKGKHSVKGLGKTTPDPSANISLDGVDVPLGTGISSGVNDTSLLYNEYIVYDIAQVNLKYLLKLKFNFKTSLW
Assay: PARP1 biochemical DELFIA assay (auto-PARylation)
Design: recombinant full length human N-terminally FLAG-tagged PARP1
Settings: binned IC50, biochemical auto-PARylation assay
pIC50: −log10 of the molar value.
Reported pIC50 values for the following compounds.

Some entries whose results are on file:
compound	pIC50
CNC(=O)c1ccc(N2CCC(N3CCC(c4cc5c(c(=O)[nH]4)CCC(=O)N5)C3)CC2)cn1 (single isomer, unassigned) [Compound 309a]	> 8.00
O=C(NC1CC1)c1ccc(N2CCC(N3CCC(c4cc5ncc(F)cc5c(=O)[nH]4)C3)CC2)cn1 (single isomer, unassigned) [Compound 372a]	> 8.00
CNC(=O)c1ccc(N2CCC(N3CCC(c4[nH]c(=O)c5cc(F)ccc5c4F)C3)CC2)cn1 (single isomer, unassigned) [Compound 401b]	> 8.00
CNC(=O)c1ccc(N2CCC(N3CCC(c4cnc(C(F)(F)F)c(=O)[nH]4)C3)CC2)cn1 (single isomer, unassigned) [Compound 279b]	5.00 to 6.00
CNC(=O)c1ccc(N2CCC(N3CC4(c5nc6c(c(=O)[nH]5)CCC6)CC3C4)CC2)c(F)n1 [Compound 302]	> 8.00

Query: Query pIC50 for CNC(=O)c1ccc(N2CCC(N3CCC(c4nc5sc(C)c(C)c5c(=O)[nH]4)C3)CC2)cn1 (single isomer, unassigned) [Compound 221a]
Response: 7.00 to 8.00

Query: Query pIC50 for CNC(=O)c1ccc(N2CCC(N3CCC(c4cc5cccc(O)c5c(=O)[nH]4)C3)CC2)cn1 (racemic) [Compound 271rac]
Response: > 8.00

Query: Query pIC50 for CC(=O)Nc1ccc(N2CCC(N3CCC(c4nc5ccccc5c(=O)[nH]4)C3)CC2)cn1 (single isomer, unassigned) [Compound 220b]
Response: 7.00 to 8.00

Query: Query pIC50 for CNC(=O)c1cc(C(F)(F)F)c(N2CCC(N3CCC(c4cc5cccc(F)c5c(=O)[nH]4)C3)CC2)cn1 (single isomer, unassigned) [Compound 308b]
Response: > 8.00

====

Molecular target: full length N-terminally FLAG-tagged PARP1 (Homo sapiens, UniProt P09874)
Experiment: PARP1 biochemical DELFIA assay (auto-PARylation)
Design: recombinant full length human N-terminally FLAG-tagged PARP1
Conditions: binned IC50, biochemical auto-PARylation assay
pIC50: −log10 of the molar value.
readout.name: pIC50

Some entries whose results are on file:
molecule	pIC50
N#Cc1ccc(N2CCC(N3CC4(c5nc6ccc(F)cc6c(=O)[nH]5)CC3C4)CC2)c(F)c1 [Compound 380]	> 8.00
CNC(=O)c1ccc(N2CCC(N3CCC(c4nc5c(c(=O)[nH]4)CN(C)C5)C3)CC2)cn1 (racemic) [Compound 294rac]	6.00 to 7.00
CS(=O)(=O)NC(=O)c1ccc(N2CCC(N3CCC(c4cc5ccccc5c(=O)[nH]4)C3)CC2)cc1 (single isomer, unassigned) [Compound 342b]	> 8.00
CCc1ccc(C2CCN(C3CCN(c4cnc(C(=O)NC)cc4F)CC3)C2)[nH]c1=O (racemic) [Compound 257rac]	> 8.00
N#Cc1nc(C(=O)NC2CC2)ccc1N1CCC(N2CCC(c3cc4cccc(F)c4c(=O)[nH]3)C2)CC1 (single isomer, unassigned) [Compound 410a]	> 8.00

Query: Query pIC50 for CNC(=O)c1ccc(N2CCC(N3CCC(c4nc5c(c(=O)[nH]4)COC5)C3)CC2)cn1 (single isomer, unassigned) [Compound 272b]
Response: 6.00 to 7.00

Query: Query pIC50 for CCc1ccc(C2CCN(C3CCN(c4ccc(C(=O)NCCF)nc4F)CC3)C2)[nH]c1=O (single isomer, unassigned) [Compound 322a]
Response: > 8.00

====

Molecular target: full length N-terminally FLAG-tagged PARP1 (Homo sapiens, UniProt P09874)
Experiment: PARP1 probe displacement HTRF assay
Conditions: PARP1 HTRF, binned Kd, PARP1 probe displacement HTRF
pKd: −log10 of the molar value.
readout.name: pKd

Some entries whose results are on file:
compound	pKd
CNC(=O)c1ccc(N2CCC(C(=O)N3CCC(c4ncc(C(F)(F)F)c(=O)[nH]4)CC3)CC2)cn1	6.00 to 7.00
CNC(=O)c1ccc(N2CCC(N3CCC(c4cc5[nH]nc(C(F)(F)F)c5c(=O)[nH]4)C3)CC2)cn1 (single isomer, unassigned) [Compound 194b]	> 8.00
CNC(=O)c1ccc(N2CCC(CN3CCC(c4nc5c(Cl)cccc5c(=O)[nH]4)CC3)CC2)cn1	> 8.00
CNC(=O)c1ccc(OCCN2CCC(c3nc4ccccc4c(=O)[nH]3)CC2)cn1	7.00 to 8.00
CNC(=O)c1ccc(N2CCC(N3CCC(c4cc5ccc(F)cc5c(=O)[nH]4)C3)CC2)cn1 (racemic) [Compound 154rac]	> 8.00
CNC(=O)c1ccc(N2CC(N3CCC(Cc4nc5ccccc5c(=O)[nH]4)CC3)C2)cn1	> 8.00
CNC(=O)c1ccc(N2CCC(N3CCC(c4nc5[nH]nc(C(F)(F)F)c5c(=O)[nH]4)C3)CC2)cn1 (single isomer, unassigned) [Compound 162a]	7.00 to 8.00
CNC(=O)c1ccc(N2CCC(N3CCC(c4nc5ccccc5c(=O)[nH]4)C3)CC2)cn1 (racemic) [Compound 10rac]	> 8.00

Query: Query pKd for CNC(=O)c1ccc(N2CCC(N3CCC(c4cc5cccc(F)c5c(=O)[nH]4)C3)CC2)cn1 (single isomer, unassigned) [Compound 136a]
Response: > 8.00

Query: Query pKd for CNC(=O)c1ccc(N2CCC(N3CCC(c4nc5c(Cl)cccc5c(=O)[nH]4)C3)CC2)cn1 (single isomer, unassigned) [Compound 52a]
Response: 7.00 to 8.00

Query: Query pKd for CNC(=O)c1ccc(N2CCC(N3CCC(c4nc5ccccc5c(=O)[nH]4)C3)CC2)cn1 (single isomer, unassigned) [Compound 10a]
Response: > 8.00

Query: Query pKd for CCc1ccc(C2CCN(C3CCN(c4ccc(C(=O)NC)nc4F)CC3)C2)[nH]c1=O (single isomer, unassigned) [Compound 151a]
Response: > 8.00

====

Target: N-terminally FLAG-tagged PARP2 (amino acids 1-583) (Homo sapiens)
Construct: N-terminally FLAG-tagged PARP2 (amino acids 1-583)
Sequence (Q9UGN5 whole entry, the tested form may be a part): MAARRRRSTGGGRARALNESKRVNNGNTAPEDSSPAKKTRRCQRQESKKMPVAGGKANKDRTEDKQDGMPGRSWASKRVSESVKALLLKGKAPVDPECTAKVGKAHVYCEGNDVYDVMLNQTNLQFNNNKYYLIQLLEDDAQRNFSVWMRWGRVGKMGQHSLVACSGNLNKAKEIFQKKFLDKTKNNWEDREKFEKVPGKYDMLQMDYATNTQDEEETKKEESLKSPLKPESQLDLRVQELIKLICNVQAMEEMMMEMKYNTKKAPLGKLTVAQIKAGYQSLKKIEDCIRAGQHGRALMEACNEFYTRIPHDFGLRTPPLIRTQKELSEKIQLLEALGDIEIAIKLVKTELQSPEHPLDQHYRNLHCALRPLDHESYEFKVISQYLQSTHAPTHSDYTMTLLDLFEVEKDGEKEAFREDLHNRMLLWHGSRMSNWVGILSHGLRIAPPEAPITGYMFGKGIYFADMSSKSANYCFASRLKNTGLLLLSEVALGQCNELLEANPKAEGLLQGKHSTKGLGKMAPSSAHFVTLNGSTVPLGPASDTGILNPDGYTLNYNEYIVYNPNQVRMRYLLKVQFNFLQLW
Assay: PARP2 probe displacement HTRF assay
Type: binding
Details: binned Kd, PARP2 probe displacement HTRF
pKd: −log10 of the molar value.
readout.name: pKd

compound	readout.name	result
CNC(=O)c1ccc(N2CCC(N3CCC(c4cc5c(Cl)cccc5c(=O)[nH]4)C3)CC2)cn1 (single isomer, unassigned) [Compound 137b]	pKd	7.00 to 8.00
CNC(=O)c1ccc(N2CCC(CN3CC4(c5nc6ccccc6c(=O)[nH]5)CC3C4)CC2)cn1	pKd	5.00 to 6.00
CNC(=O)c1ccc(N2CCC(N3CCC(c4nc5cccc(C(F)(F)F)c5c(=O)[nH]4)C3)CC2)cn1 (single isomer, unassigned) [Compound 86a]	pKd	6.00 to 7.00
CNC(=O)c1ccc(N2CCC(N3CCC(c4nc5ccccc5c(=O)[nH]4)C3)CC2)c(C(F)F)n1 (single isomer, unassigned) [Compound 158a]	pKd	5.00 to 6.00
CNC(=O)c1ccc(N2CCC(N3CCCC(c4ccc(C(C)C)c(=O)[nH]4)C3)CC2)cn1 (racemic)	pKd	< 5.00
CCc1cnc(C2CCN(C3CCC(F)(F)CC3)C2)[nH]c1=O (single isomer, unassigned) [Compound 38b]	pKd	< 5.00
CNC(=O)c1ccc(N2CCC(CN3CCCC(c4nc5ccccc5c(=O)[nH]4)C3)CC2)cn1 (single isomer, unassigned) [Compound 9a]	pKd	5.00 to 6.00
CNC(=O)c1ccc(F)c(N2CCC(N3CCC(c4nc5ccccc5c(=O)[nH]4)C3)CC2)n1 (racemic)	pKd	5.00 to 6.00

Query: Query pKd for "CNC(=O)c1ccc(N2CCC(C(=O)N3CCC(c4ncc(C(F)(F)F)c(=O)[nH]4)CC3)CC2)cn1"
Response: < 5.00
